# test protocol: Acute toxicity (LD50) in mice
# measurement setup: mouse, in vivo, iv, observation time 14 days, read-out: LD50 i.v.
recorded metric: LD50 at 336 h (mg/kg)
Answers are plain numbers, in mg/kg.

// solved cases for LD50 at 336 h follow
CCC(C)Oc1nc(N2CCNCC2)nc(N2CCS(=O)(=O)CC2)c1[N+](=O)[O-] (stereo not drawn) = 150
Cc1nc(N2CCNCC2)nc(N2CCSCC2)c1[N+](=O)[O-] = 70
N#Cc1nc(N2CCNCC2)nc(N2CC[S+]([O-])CC2)c1Cl = 101

// each listed compound needs a value for LD50 at 336 h
1. Cc1nc(N2CCNCC2)nc(N2CC[S+]([O-])CC2)c1[N+](=O)[O-]
2. CCOc1nc(N2CCNCC2)nc(N2CC[S+]([O-])CC2)c1[N+](=O)[O-]
3. CC(C)Oc1nc(N2CCNCC2)nc(N2CC[S+]([O-])CC2)c1[N+](=O)[O-]

Data returned:
160
150
170
